Assay: Tmax in C57BL/6 mouse at 20 mg/kg, po measured up to 24 hrs by LC-MS/MS analysis
Assay type: ADME, organism-based
Details: in vivo
Reported metric: Tmax (h)

Cl.NCCCOc1cc2ccccc2cc1C(=O)NCCOc1cc2ccccc2cc1C(=O)Nc1ccc(Cl)cc1O    2
NCCCOc1cc2ccccc2cc1C(=O)NCCOc1cc2ccccc2cc1C(=O)Nc1ccc(Cl)cc1OP(=O)(O)O.O=C(O)C(F)(F)F    2
